Test system: E. coli
assay remarks: microbe, parasite or virus in culture
details: Escherichia coli, read-out: BMD MIC
Item-by-item account of MIC

Past entries and their recorded results:
C[C@@H](O)[C@H]1C(=O)N2C(C(=O)O)=C(S[C@@H]3CN[C@H](C(=O)N(C)C)C3)[C@H](C)[C@H]12 [Meropenem, meropenem, reference compound] ... ≤ 0.25 µg/mL
O=C(O)c1cn(C2CC2)c2cc(N3CCNCC3)c(F)cc2c1=O ... ≤ 0.25 µg/mL
CC(C)(O/N=C(\C(=O)N[C@@H]1C(=O)N2C(C(=O)[O-])=C(C[n+]3ccccc3)CS[C@H]12)c1csc(N)n1)C(=O)O [Ceftazidime, ceftazidime, reference compound] ... 16 µg/mL

Quick note, MIC for CO/N=C(\C(=O)N[C@@H]1C(=O)N2C(C(=O)[O-])=C(C[N+]3(C)CCCC3)CS[C@H]12)c1csc(N)n1 [Cefepime, reference compound] landed at 8 µg/mL

* * *

Item-by-item account of MIC
System: E. coli
assay remarks: microbe, parasite or virus in culture
details: Escherichia coli, ATCC25922, read-out: BMD MIC, E. coli ATCC 25922 FDA control strain; CAMHB; mode of 6 replicates

Past entries and their recorded results:
C[C@@H](O)[C@H]1C(=O)N2C(C(=O)O)=C(S[C@@H]3CN[C@H](C(=O)N(C)C)C3)[C@H](C)[C@H]12 [Meropenem, meropenem, reference compound] ... ≤ 0.06 µg/mL
CC(C)(O/N=C(\C(=O)N[C@@H]1C(=O)N2C(C(=O)[O-])=C(C[n+]3ccccc3)CS[C@H]12)c1csc(N)n1)C(=O)O [Ceftazidime, ceftazidime, reference compound] ... 1 µg/mL
CNC(C)C1CCC(N)C(OC2C(N)CC(N)C(OC3OCC(C)(O)C(NC)C3O)C2O)O1 (centres unmarked) [Gentamicin, gentamicin, reference compound] ... ≤ 0.25 µg/mL
CO/N=C(\C(=O)N[C@@H]1C(=O)N2C(C(=O)[O-])=C(C[N+]3(C)CCCC3)CS[C@H]12)c1csc(N)n1 [Cefepime, reference compound] ... ≤ 0.5 µg/mL

Below: the item to evaluate.
Quick note, MIC for O=C(O)c1cn(C2CC2)c2cc(N3CCNCC3)c(F)cc2c1=O [Ciprofloxacin, ciprofloxacin] landed at ≤ 0.25 µg/mL

* * *

Item-by-item account of MIC
System: K. pneumoniae
assay remarks: microbe, parasite or virus in culture
details: Klebsiella pneumoniae, ATCC700603, read-out: BMD MIC, K. pneumoniae ATCC 700603 (K6), MDR; OXA-2/SHV-18; CAMHB; mode of 6 replicates
I only need the number, in µg/mL, no unit after it.

CNC(C)C1CCC(N)C(OC2C(N)CC(N)C(OC3OCC(C)(O)C(NC)C3O)C2O)O1 (stereo not shown) [Gentamicin, gentamicin, reference compound] ... 4
C[C@@H](O)[C@H]1C(=O)N2C(C(=O)O)=C(S[C@@H]3CN[C@H](C(=O)N(C)C)C3)[C@H](C)[C@H]12 [Meropenem, meropenem, reference compound] ... 0.06

Below: the item to evaluate.
The recorded MIC with K. pneumoniae for CO/N=C(\C(=O)N[C@@H]1C(=O)N2C(C(=O)[O-])=C(C[N+]3(C)CCCC3)CS[C@H]12)c1csc(N)n1 [Cefepime, reference compound] was 0.5

* * *

Tested on: S. enterica Typhi
assay remarks: microbe, parasite or virus in culture
details: Salmonella enterica, ATCC14028 / TYPHI, read-out: BMD MIC
measure: MIC (µg/mL)
I only need the number, in µg/mL, no unit after it.

O=C(O)c1cn(C2CC2)c2cc(N3CCNCC3)c(F)cc2c1=O [Ciprofloxacin, ciprofloxacin] ... 0.004
CNC(C)C1CCC(N)C(OC2C(N)CC(N)C(OC3OCC(C)(O)C(NC)C3O)C2O)O1 (stereo not drawn) [Gentamicin, gentamicin, reference compound] ... 1

Below: the item to evaluate.
Quick note, MIC for C[C@@H](O)[C@H]1C(=O)N2C(C(=O)O)=C(S[C@@H]3CN[C@H](C(=O)N(C)C)C3)[C@H](C)[C@H]12 [Meropenem, meropenem, reference compound] landed at 0.125

* * *

Test system: A. baumannii
assay remarks: microbe, parasite or virus in culture
details: Acinetobacter baumannii, ATCC19636, read-out: BMD MIC, A. baumannii ATCC 19636 type strain; CAMHB; mode of 6 replicates
Procedure: Antimicrobial activity of arenicin-3 and its analogs was tested against a panel of bacterial and yeast strains by in vitro broth microdilution (BMD) assay with minimum inhibitory concentration (MIC) determination. Strains were purchased from American Type Culture Collection (ATCC) or obtained from clinical collaborators (full strain profiles provided in Supplementary Data 3). […]
measure: MIC (µg/mL)
I only need the number, in µg/mL, no unit after it.

Past entries and their recorded results:
CO/N=C(\C(=O)N[C@@H]1C(=O)N2C(C(=O)[O-])=C(C[N+]3(C)CCCC3)CS[C@H]12)c1csc(N)n1 [Cefepime, reference compound] ... 8
CNC(C)C1CCC(N)C(OC2C(N)CC(N)C(OC3OCC(C)(O)C(NC)C3O)C2O)O1 (stereo not shown) [Gentamicin, gentamicin, reference compound] ... 16
CC(C)(O/N=C(\C(=O)N[C@@H]1C(=O)N2C(C(=O)[O-])=C(C[n+]3ccccc3)CS[C@H]12)c1csc(N)n1)C(=O)O [Ceftazidime, ceftazidime, reference compound] ... 16

Below: the item to evaluate.
Quick note, MIC for C[C@@H](O)[C@H]1C(=O)N2C(C(=O)O)=C(S[C@@H]3CN[C@H](C(=O)N(C)C)C3)[C@H](C)[C@H]12 [Meropenem, meropenem, reference compound] landed at 1

* * *

Tested on: S. enterica Typhi
assay remarks: microbe, parasite or virus in culture
details: Salmonella enterica, ATCC14028 / TYPHI, read-out: BMD MIC
measure: MIC

CC(C)(O/N=C(\C(=O)N[C@@H]1C(=O)N2C(C(=O)[O-])=C(C[n+]3ccccc3)CS[C@H]12)c1csc(N)n1)C(=O)O [Ceftazidime, ceftazidime, reference compound] ... ≤ 0.5 µg/mL
CO/N=C(\C(=O)N[C@@H]1C(=O)N2C(C(=O)[O-])=C(C[N+]3(C)CCCC3)CS[C@H]12)c1csc(N)n1 [Cefepime, reference compound] ... ≤ 0.5 µg/mL

Quick note, MIC for CN[C@H](CC(C)C)C(=O)N[C@H]1C(=O)N[C@@H](CC(N)=O)C(=O)N[C@H]2C(=O)N[C@H]3C(=O)N[C@H](C(=O)N[C@H](C(=O)O)c4cc(O)cc(O)c4-c4cc3ccc4O)[C@H](O)c3ccc(c(Cl)c3)Oc3cc2cc(c3O[C@@H]2O[C@H](CO)[C@@H](O)[C@H](O)[C@H]2O[C@H]2C[C@](C)(N)[C@H](O)[C@H](C)O2)Oc2ccc(cc2Cl)[C@H]1O [Vancomycin, reference compound] landed at > 64 µg/mL
